- assayTarget: CRBN and Helios (IKZF2) (Homo sapiens, UniProt Q96SW2+Q9UKS7)
- Construct: His (N); Strep (N)
- Sequence (Q96SW2 whole entry): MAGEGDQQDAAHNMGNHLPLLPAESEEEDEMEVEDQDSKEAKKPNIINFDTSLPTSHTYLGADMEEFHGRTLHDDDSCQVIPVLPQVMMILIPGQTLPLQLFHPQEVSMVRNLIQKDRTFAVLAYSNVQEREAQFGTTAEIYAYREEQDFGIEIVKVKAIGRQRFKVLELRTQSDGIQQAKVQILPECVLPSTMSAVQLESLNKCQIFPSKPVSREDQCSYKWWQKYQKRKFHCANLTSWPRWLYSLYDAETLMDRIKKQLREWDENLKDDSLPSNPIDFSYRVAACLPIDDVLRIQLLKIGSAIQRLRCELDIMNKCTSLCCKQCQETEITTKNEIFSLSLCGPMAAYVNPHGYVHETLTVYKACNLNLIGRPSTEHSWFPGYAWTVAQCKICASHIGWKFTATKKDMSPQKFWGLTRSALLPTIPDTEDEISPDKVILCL
- Sequence (Q9UKS7 whole entry): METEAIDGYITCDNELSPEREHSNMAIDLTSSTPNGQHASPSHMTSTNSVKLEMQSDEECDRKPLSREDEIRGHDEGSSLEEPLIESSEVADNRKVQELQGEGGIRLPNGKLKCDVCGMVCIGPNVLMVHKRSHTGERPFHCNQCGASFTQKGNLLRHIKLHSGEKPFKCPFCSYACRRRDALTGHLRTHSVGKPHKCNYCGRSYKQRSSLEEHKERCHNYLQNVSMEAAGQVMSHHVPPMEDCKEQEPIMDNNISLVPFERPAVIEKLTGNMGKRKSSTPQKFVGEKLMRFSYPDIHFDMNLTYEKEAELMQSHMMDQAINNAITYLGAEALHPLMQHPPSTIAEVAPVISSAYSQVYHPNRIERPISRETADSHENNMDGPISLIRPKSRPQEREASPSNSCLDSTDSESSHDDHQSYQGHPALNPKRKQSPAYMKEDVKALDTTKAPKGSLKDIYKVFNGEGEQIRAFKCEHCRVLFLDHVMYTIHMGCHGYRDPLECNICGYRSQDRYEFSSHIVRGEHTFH
- methodNotes: TR-FRET dimerization assay (CRBN-IKZF2 ternary complex formation)
- Assay type: binding
- testContext: compound concentration 6.6667E−07 (667 nM); n=1
- Protocol: A focused library of imide analogs was synthesized and assessed for their ability to induce dimerization between CRBN and Helios in a time-resolved fluorescence energy transfer (TR-FRET) assay (FIG. 1A). Prior to TR-FRET measurements being conducted, the reactions were incubated for 15 min at rt. […] Data from single measurements (n=1), each calculated as an average of at least three technical replicates per well per experiment are presented in Table 1. […]
measuredMetric: TR-FRET-IKZF2 (Normalized to CC-885)
Just the number, please, no unit attached.

Example entries and their recorded answers appear below.
Checklist item: TR-FRET-IKZF2 (Normalized to CC-885) tested on CRBN and Helios (IKZF2) (Homo sapiens, UniProt Q96SW2+Q9UKS7), entry CN(C)C(=O)c1ccc(NC2=CC(=O)N(C3CCC(=O)NC3=O)C2=O)cc1 (stereo not drawn) [Compound 34] , value?
0.059

Please provide the recorded TR-FRET-IKZF2 (Normalized to CC-885) for CN(C)C(=O)Cc1cccc(NC2=CC(=O)N(C3CCC(=O)NC3=O)C2=O)c1 (stereo not drawn) [Compound 35] , tested on CRBN and Helios (IKZF2) (Homo sapiens, UniProt Q96SW2+Q9UKS7).
0.402

Form field: TR-FRET-IKZF2 (Normalized to CC-885) recorded for COC(=O)CCNC1=CC(=O)N(C2CCC(=O)NC2=O)C1=O (stereo not drawn) [Compound 14] with CRBN and Helios (IKZF2) (Homo sapiens, UniProt Q96SW2+Q9UKS7) (enter value)
0.022

---
Form entry - test system: CRBN and Helios (IKZF2) (Homo sapiens, UniProt Q96SW2+Q9UKS7); read-out: TR-FRET-IKZF2 (Normalized to CC-885); compound: CC(CC(=O)Nc1cccc(C(F)(F)F)c1)c1cccc(NC2=CC(=O)N(C3CCC(=O)NC3=O)C2=O)c1 (stereo not drawn) [Compound 140]
1.626

What is its TR-FRET-IKZF2 (Normalized to CC-885) for CRBN and Helios (IKZF2) (Homo sapiens, UniProt Q96SW2+Q9UKS7)? Entry: O=C1CCC(N2C(=O)C=C(Nc3ccc4cc[nH]c4c3)C2=O)C(=O)N1 (stereo not drawn) [Compound 37]
0.355

Param readout = TR-FRET-IKZF2 (Normalized to CC-885); param system = CRBN and Helios (IKZF2) (Homo sapiens, UniProt Q96SW2+Q9UKS7); param query = Cc1ccc(NC(=O)NC(C)(C)c2cccc(NC3=CC(=O)N(C4CCC(=O)NC4=O)C3=O)c2)cc1Cl (stereo not drawn) [Compound 69] ; response: value
1.737

###

- assayTarget: CRBN and Helios (IKZF2) (Homo sapiens, UniProt Q96SW2+Q9UKS7)
- Construct: His (N); Strep (N)
- methodNotes: TR-FRET dimerization assay (CRBN-IKZF2 ternary complex formation)
- Type: binding
- testContext: compound concentration 6.6667E−05; n=1
measuredMetric: TR-FRET-IKZF2 (Normalized to CC-885)
Number only, please.

Examples with their reported TR-FRET-IKZF2 (Normalized to CC-885) follow.
What does the record list as TR-FRET-IKZF2 (Normalized to CC-885) for COC(=O)c1n[nH]c(NC2=CC(=O)N(C3CCC(=O)NC3=O)C2=O)n1 (stereo not drawn) ?
0.050

Consider the compound Cc1ccc(NC(=O)OCc2cccc(NC3=CC(=O)N(C4CCC(=O)NC4=O)C3=O)c2)cc1Cl (stereo not drawn) and give its measured TR-FRET-IKZF2 (Normalized to CC-885).
0.140

For the next question, use this compound.
Any idea what TR-FRET-IKZF2 (Normalized to CC-885) was measured for Cc1ccc(NC(=O)Nc2cccc3c(NC4=CC(=O)N(C5CCC(=O)NC5=O)C4=O)cccc23)cc1Cl (stereo not drawn) ?
0.159
